# Target Under Test: T1, CRF2R
# T1 sequence (Q13324 whole entry, species assumed, looked up): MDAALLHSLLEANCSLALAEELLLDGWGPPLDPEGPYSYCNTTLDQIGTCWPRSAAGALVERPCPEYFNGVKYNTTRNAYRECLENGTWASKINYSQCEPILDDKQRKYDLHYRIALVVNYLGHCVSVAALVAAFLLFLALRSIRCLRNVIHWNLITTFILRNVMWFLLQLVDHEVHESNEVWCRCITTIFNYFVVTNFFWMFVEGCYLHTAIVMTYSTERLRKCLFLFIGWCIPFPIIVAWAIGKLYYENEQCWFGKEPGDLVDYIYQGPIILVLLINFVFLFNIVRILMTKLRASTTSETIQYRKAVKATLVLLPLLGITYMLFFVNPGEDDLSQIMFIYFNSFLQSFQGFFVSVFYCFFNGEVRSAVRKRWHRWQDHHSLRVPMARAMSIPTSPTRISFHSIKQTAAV
# Assay Explanation: cell-based or functional assay
Ends that are not written are not given here.
Result Type: CRF2R EC50

binder="ZGPPISIDLPSYLLRKMIEIEKQEKEKQQAANNRLLLDTI (C-terminal amide) [SEQ ID NO 56]" result_type="CRF2R EC50" result="50.4 nM"
binder="IVLSLDVPIGLLQILLEQEKEKKRKETNARILARV-NH2 [SEQ ID NO 132]" result_type="CRF2R EC50" result="7.53 nM"
binder="ZGPPISIDLPLHLLRKMIEIEKQEKEKQQAANNRLLLDTI (C-terminal amide) [SEQ ID NO 83]" result_type="CRF2R EC50" result="1.91 nM"
